Test system: E. multilocularis metacestode vesicles
Assay: Phosphoglucose isomerase (PGI) release assay (damage-marker release) on metacestode vesicles
Type: cell-based, Echinococcus multilocularis
Details: overview screen, 10 μM, singlets, 12 days, relative to 0.1 % Triton X-100, DMSO subtracted
For each entry below, report its PGI d12 (relative PGI release) value.
Give bare numbers, in %.

>  <Compound>
Cc1cc(CCCOc2c(C)cc(-c3noc(C(F)(F)F)n3)cc2C)on1 [MMV690467]

>  <Tested On>
E. multilocularis metacestode vesicles

>  <PGI d12 (relative PGI release) [%]>
0.2856

$$$$
>  <Compound>
CN(O)C(=O)c1cc2c(CN3CCC[C@H]3C(N)=O)cn(Cc3ccc(F)cc3)c2cn1 [MMV1782386]

>  <Tested On>
E. multilocularis metacestode vesicles

>  <PGI d12 (relative PGI release) [%]>
-1.18

$$$$
>  <Compound>
CN1C(=O)C(c2ccccc2)C(=O)N(c2ccccc2)c2cc(C(F)(F)F)ccc21 (stereo not drawn) [MMV1782208]

>  <Tested On>
E. multilocularis metacestode vesicles

>  <PGI d12 (relative PGI release) [%]>
-0.2102

$$$$
>  <Compound>
O=C(Nc1ncc(Cc2cccc3ccccc23)s1)C1CCCCC1 [MMV1593532]

>  <Tested On>
E. multilocularis metacestode vesicles

>  <PGI d12 (relative PGI release) [%]>
-3.615

$$$$
>  <Compound>
COc1ccc(C)cc1NC(=O)c1ccc(S(=O)(=O)N2CCCCC2)cc1 [MMV1578579]

>  <Tested On>
E. multilocularis metacestode vesicles

>  <PGI d12 (relative PGI release) [%]>
-13.2873

$$$$

# return PGI d12 (relative PGI release) for each item in the list
1. COc1cc(NCc2ccc3nc(N)nc(N)c3c2C)cc(OC)c1OC [MMV1580173]
2. Fc1ccc2c(/C=C/c3nnn[nH]3)c[nH]c2c1 [MMV1578563]
3. O=C(NC(=O)N1CCCc2ccccc21)c1ccc(Cl)cc1Cl [MMV1782218]
4. Cc1ccccc1NC(=O)Nc1cccc([N+](=O)[O-])c1 [MMV1581029]

Solution:
-23.9013
-11.8723
-25.0073
-16.6439
